# study target: Ba/F3-FGFR4-transfected cells (Homo sapiens, UniProt P22455)
# Sequence (P22455 whole entry, change not shown): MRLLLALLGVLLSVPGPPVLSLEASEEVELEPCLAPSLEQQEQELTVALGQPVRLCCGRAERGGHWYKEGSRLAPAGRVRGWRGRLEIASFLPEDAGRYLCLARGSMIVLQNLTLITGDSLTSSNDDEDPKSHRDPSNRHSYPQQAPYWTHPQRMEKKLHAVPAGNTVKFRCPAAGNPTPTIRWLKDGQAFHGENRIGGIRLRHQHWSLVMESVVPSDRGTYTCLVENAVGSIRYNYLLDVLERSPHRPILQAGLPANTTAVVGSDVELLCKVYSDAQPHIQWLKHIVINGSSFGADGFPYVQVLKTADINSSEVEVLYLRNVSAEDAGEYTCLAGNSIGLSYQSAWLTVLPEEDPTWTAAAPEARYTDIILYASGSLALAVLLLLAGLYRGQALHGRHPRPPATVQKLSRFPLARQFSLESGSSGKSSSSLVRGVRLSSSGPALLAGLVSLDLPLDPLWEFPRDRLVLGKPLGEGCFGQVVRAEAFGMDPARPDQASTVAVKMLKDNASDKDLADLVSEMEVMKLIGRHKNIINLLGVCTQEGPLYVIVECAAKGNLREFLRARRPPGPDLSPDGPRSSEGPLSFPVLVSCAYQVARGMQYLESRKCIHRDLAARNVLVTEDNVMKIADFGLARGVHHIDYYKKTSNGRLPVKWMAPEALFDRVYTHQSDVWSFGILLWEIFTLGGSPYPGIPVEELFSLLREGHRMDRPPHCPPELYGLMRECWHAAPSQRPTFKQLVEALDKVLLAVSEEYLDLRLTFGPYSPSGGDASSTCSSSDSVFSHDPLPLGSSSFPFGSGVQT
# assay details: Ba/F3-FGFR4 cellular proliferation assay, Alamar Blue
# Assay type: cell-based
# Procedure: Ba/F3-FGFR4 (Cellular Proliferation Assay) In a 384 well plate, 100 nl of compound dilution in DMSO was sprayed before adding 50 μl cell culture medium (phenol red free RPMI-1640, 10% FBS, 2 mM L-Glutamine and 50 μg/ml Gentamycin) containing 20000 cells per well of Ba/F3-FGFR4-transfected cells. Cells were put in an incubator at 37° C. and 5% CO2. […]
assay metric: BAF3-FGFR4 pIC50

- compound: "CNC(=O)c1cc(-c2cnc3ccc(N(CCN4CCCC4CO)c4cc(OC)cc(OC)c4)cc3n2)ccn1 (stereo not shown) [Compound 109]"
  BAF3-FGFR4 pIC50: 6.2
- compound: "COc1cc(OC)cc(N(CCO)c2ccc3ncc(-c4ccccc4)nc3c2)c1 [Compound 120]"
  BAF3-FGFR4 pIC50: 6.0
- compound: "COc1cc(OC)cc(N(CCCNCC(F)(F)F)c2ccc3ncc(C(=O)NCCN4CCOCC4)nc3c2)c1 [Compound 158]"
  BAF3-FGFR4 pIC50: 5.1
- compound: "COc1cc(OC)cc(N(Cc2cccc(CN)n2)c2ccc3ncc(-c4ccc(N)nc4)nc3c2)c1 [Compound 51]"
  BAF3-FGFR4 pIC50: 5.7
- compound: "COCC(CN(c1cc(OC)cc(OC)c1)c1ccc2ncc(-c3cccnc3)nc2c1)OC(C)=O (single isomer, unassigned) [Compound 76]"
  BAF3-FGFR4 pIC50: 5.6
- compound: "COc1cc(OC)cc(N(CCO)c2ccc3ncc(C(=O)Nc4cnn(C)c4)nc3c2)c1 [Compound 184]"
  BAF3-FGFR4 pIC50: 5.1

* * *

# study target: Ba/F3-Flt3-transfected cells (Homo sapiens, UniProt P36888, cells depend on it, form not given)
# Sequence (P36888 1-993): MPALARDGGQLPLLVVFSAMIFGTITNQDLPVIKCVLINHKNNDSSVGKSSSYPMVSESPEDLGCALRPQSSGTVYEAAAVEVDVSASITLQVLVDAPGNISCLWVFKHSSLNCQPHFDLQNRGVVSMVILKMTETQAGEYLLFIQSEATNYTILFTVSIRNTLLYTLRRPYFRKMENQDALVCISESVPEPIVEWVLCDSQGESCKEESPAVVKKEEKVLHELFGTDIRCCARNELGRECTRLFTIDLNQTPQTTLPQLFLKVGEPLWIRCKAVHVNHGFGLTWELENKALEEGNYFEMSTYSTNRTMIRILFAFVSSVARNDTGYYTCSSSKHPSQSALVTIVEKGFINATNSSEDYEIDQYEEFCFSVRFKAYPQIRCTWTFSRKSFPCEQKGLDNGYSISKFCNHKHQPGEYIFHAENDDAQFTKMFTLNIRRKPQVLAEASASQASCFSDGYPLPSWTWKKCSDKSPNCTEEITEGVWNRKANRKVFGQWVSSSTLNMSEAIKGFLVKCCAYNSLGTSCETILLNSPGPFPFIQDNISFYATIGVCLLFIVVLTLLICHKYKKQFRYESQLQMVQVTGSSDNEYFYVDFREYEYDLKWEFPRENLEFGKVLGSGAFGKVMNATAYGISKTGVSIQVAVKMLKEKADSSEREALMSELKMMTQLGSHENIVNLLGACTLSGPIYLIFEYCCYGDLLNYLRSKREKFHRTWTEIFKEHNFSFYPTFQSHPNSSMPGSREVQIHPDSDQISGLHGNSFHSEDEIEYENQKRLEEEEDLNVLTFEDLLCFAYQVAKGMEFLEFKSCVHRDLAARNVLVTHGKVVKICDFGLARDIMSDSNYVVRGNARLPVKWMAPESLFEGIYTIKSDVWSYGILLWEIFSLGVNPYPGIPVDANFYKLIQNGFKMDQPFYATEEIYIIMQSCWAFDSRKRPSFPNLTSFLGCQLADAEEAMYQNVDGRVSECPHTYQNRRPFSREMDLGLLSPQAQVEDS
# assay details: Ba/F3-Flt3 (minus IL3) cellular proliferation assay, Alamar Blue
# Type: cell-based
# test settings: minus IL3
Form field: BAF3-FLT3 (MIN IL3) 384 well pIC50 (one value per entry).

Give BAF3-FLT3 (MIN IL3) 384 well pIC50 for COc1cc(OC)cc(N(CCCNC(C)C)c2ccc3ncc(-c4ccnc(N)c4)nc3c2)c1 ~5.25

Give BAF3-FLT3 (MIN IL3) 384 well pIC50 for COc1cc(OC)cc(N(CC(O)C(F)(F)F)c2ccc3ncc(-c4cccnc4)nc3c2)c1 (single isomer, unassigned) [Compound 54] <5

Give BAF3-FLT3 (MIN IL3) 384 well pIC50 for COc1cc(OC)cc(N(CCNC(C)C)c2ccc3ncc(-c4ccc(N)nc4)nc3c2)c1 5.17

Give BAF3-FLT3 (MIN IL3) 384 well pIC50 for COc1cc(OC)cc(N(CCO)c2ccc3ncc(-c4ccnc(C(=O)NCCCCCN)c4)nc3c2)c1 <5

Give BAF3-FLT3 (MIN IL3) 384 well pIC50 for COc1cc(OC)cc(N(CC2CC2)c2ccc3ncc(-c4cnco4)nc3c2)c1 <5

Give BAF3-FLT3 (MIN IL3) 384 well pIC50 for COc1cc(OC)cc(N(CCCO)c2ccc3ncc(-c4ccnc(C(=O)NCCOCCO)c4)nc3c2)c1 <5

Give BAF3-FLT3 (MIN IL3) 384 well pIC50 for COc1cc(OC)cc(N(CCCO)c2ccc3ncc(-c4ccc(N5CCNCC5)nc4)nc3c2)c1 5.44

* * *

# study target: Ba/F3-Flt3-transfected cells (Homo sapiens, UniProt P36888, cells depend on it, form not given)
# assay details: Ba/F3-Flt3 (minus IL3) cellular proliferation assay, Alamar Blue
# Assay type: cell-based
# test settings: minus IL3
Form field: BAF3-FLT3 (MIN IL3) 384 well pIC50 (one value per entry).

Observe how each entry below is paired with its result.
- structure string: "COc1cc(OC)cc(N(CCCNCC(F)(F)F)c2ccc3ncc(-c4ccc(N(C)C(=O)OC(C)(C)C)nc4)nc3c2)c1"
  BAF3-FLT3 (MIN IL3) 384 well pIC50: "<5"
- structure string: "COc1cc(OC)cc(N(CCCO)c2ccc3ncc(-c4cnc(N5CCN(C)CC5)c(C)c4)nc3c2)c1"
  BAF3-FLT3 (MIN IL3) 384 well pIC50: 5.43
- structure string: "COc1cc(OC)cc(N(CCO)c2ccc3ncc(-c4ccncc4)nc3c2)c1"
  BAF3-FLT3 (MIN IL3) 384 well pIC50: "<5"
- structure string: "COc1cc(OC)cc(N(CCN2CCOCC2)c2ccc3ncc(-c4ccc(NC(=O)N5CCOCC5)nc4)nc3c2)c1"
  BAF3-FLT3 (MIN IL3) 384 well pIC50: "<5"
- structure string: "COc1cc(OC)cc(N(CCO)c2ccc3ncc(-c4ccccc4)nc3c2)c1"
  BAF3-FLT3 (MIN IL3) 384 well pIC50: "<5"
- structure string: "COc1cc(OC)cc(N(CCCNCC(F)(F)F)c2ccc3ncc(-c4ccnc(C(=O)NCCCCCO)c4)nc3c2)c1"
  BAF3-FLT3 (MIN IL3) 384 well pIC50: "<5"

# ---- query compound ----
Give BAF3-FLT3 (MIN IL3) 384 well pIC50 for COc1cc(OC)cc(N(CC2CC2)c2ccc3ncc(NC(=O)c4ccc(F)cc4)nc3c2)c1 <5

* * *

# study target: Ba/F3-FGFR1-transfected cells (Homo sapiens)
# Sequence (P11362 whole entry, change not shown): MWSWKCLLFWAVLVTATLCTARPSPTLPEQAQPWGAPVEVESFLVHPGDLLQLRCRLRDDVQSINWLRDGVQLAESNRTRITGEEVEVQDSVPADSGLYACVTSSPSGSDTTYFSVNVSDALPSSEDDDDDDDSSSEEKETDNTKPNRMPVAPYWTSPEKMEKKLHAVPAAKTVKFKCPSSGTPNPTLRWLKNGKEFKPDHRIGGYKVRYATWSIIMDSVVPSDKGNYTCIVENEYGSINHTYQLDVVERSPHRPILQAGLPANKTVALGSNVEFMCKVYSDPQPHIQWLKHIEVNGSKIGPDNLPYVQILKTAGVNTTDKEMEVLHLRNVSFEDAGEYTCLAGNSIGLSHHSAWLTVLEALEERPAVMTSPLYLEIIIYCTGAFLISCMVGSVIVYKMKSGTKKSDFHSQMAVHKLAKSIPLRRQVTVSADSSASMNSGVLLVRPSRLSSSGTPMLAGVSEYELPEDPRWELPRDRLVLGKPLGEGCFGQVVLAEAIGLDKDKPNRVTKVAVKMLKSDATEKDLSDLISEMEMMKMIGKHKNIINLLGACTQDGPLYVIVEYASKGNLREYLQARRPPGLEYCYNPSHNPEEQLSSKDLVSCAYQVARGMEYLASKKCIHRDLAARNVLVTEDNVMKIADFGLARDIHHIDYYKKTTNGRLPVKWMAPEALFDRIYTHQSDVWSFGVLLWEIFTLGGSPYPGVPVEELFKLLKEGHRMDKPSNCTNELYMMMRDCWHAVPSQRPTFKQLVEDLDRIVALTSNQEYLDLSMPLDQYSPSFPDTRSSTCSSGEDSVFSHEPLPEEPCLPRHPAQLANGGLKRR
# assay details: Ba/F3-FGFR1 (minus IL3) cellular proliferation assay, Alamar Blue
# Type: cell-based
# test settings: minus IL3, 384 well
assay metric: BAF3-FGFR 1 (MIN IL3) 384 well pIC50

- structure string: "COc1cc(OC)cc(N(CC2CC2)c2ccc3ncc(-c4cn(CCN5CCOCC5)nn4)nc3c2)c1"
  study target: "Ba/F3-FGFR1-transfected cells (Homo sapiens)"
  result value: 5.39
- structure string: "COc1cc(OC)cc(N(CCCO)c2ccc3ncc(-c4ccnc(C(=O)NCCCCN)c4)nc3c2)c1"
  study target: "Ba/F3-FGFR1-transfected cells (Homo sapiens)"
  result value: 5.31
- structure string: "COc1cc(OC)cc(N(CCO)c2ccc3ncc(-c4ccc(OC)nc4)nc3c2)c1"
  study target: "Ba/F3-FGFR1-transfected cells (Homo sapiens)"
  result value: 5.65
- structure string: "COc1cc(OC)cc(N(CCO)c2ccc3ncc(-c4ccc(N5CCN(C)CC5)nc4)nc3c2)c1"
  study target: "Ba/F3-FGFR1-transfected cells (Homo sapiens)"
  result value: 6.15
- structure string: "COc1cc(OC)cc(N(CCO)c2ccc3ncc(-c4ccc(N5CCNCC5)nc4)nc3c2)c1"
  study target: "Ba/F3-FGFR1-transfected cells (Homo sapiens)"
  result value: 6.56

* * *

# study target: Ba/F3-Flt3-transfected cells (Homo sapiens, UniProt P36888, cells depend on it, form not given)
# assay details: Ba/F3-Flt3 (minus IL3) cellular proliferation assay, Alamar Blue
# Format: cell-based
# test settings: minus IL3
assay metric: BAF3-FLT3 (MIN IL3) 384 well pIC50

Observe how each entry below is paired with its result.
- compound: "COc1cc(OC)cc(N(CC2CC2)c2ccc3ncc(-n4nccc4C)nc3c2)c1 [Compound 62]"
  result value: "<5"
- compound: "COc1cc(OC)cc(N(CC2CC2)c2ccc3ncc(-c4ccnn4C)nc3c2)c1 [Compound 18]"
  result value: "<5"
- compound: "COc1cc(OC)cc(N(CCNC(C)C)c2ccc3ncc(-c4ccn(C)c4)nc3c2)c1 [Compound 8]"
  result value: 5.2

Give BAF3-FLT3 (MIN IL3) 384 well pIC50 for CNC(=O)c1cc(-c2cnc3ccc(N(CCNCC(F)(F)F)c4cc(OC)cc(OC)c4)cc3n2)ccn1 [Compound 113] <5
